Molecular target: nitrilase bll6402 (Bradyrhizobium diazoefficiens, UniProt Q89GE3)
Sequence (Q89GE3 whole entry, looked up): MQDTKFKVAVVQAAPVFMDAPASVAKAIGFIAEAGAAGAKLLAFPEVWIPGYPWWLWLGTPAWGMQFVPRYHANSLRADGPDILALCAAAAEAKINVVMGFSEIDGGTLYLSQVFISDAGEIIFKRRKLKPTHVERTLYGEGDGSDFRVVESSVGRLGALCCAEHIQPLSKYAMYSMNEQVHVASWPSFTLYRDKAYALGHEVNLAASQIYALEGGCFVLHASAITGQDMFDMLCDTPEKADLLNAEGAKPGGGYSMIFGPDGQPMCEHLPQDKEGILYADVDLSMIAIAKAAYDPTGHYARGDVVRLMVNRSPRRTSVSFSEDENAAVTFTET
Assay: Substrate specificity: specific/relative activity by ammonia release
Format: biochemical, Bradyrhizobium japonicum USDA110
Conditions: 25 mM substrate, pH 7.2, 30° C.; phenylacetonitrile defined as 100
Below, each entry is listed with its recorded Relative Activity.
Just the number.

Examples with their reported Relative Activity follow.
molecule | Relative Activity
CC(C#N)c1ccccc1 (stereo not drawn) [α-phenylpropionitrile] | 10
C=CCC#N [Allyl cyanide] | 2
CC(=O)c1ccc(C#N)cc1 [4-Acetylbenzonitrile] | 2

Form: molecule = CC=CC#N [Crotononitrile] ; Relative Activity = 3

---

Molecular target: nitrilase bll6402 (Bradyrhizobium diazoefficiens)
Assay: Selective hydrolysis of dinitriles to cyanocarboxylic acids
Type: biochemical, Bradyrhizobium japonicum USDA110
Details: selective hydrolysis of dinitrile
quantity: Yield (%) of cyanocarboxylic acid
Answer format: value, then unit.

line.notation | target.desc | quantity | value.observed
N#CCCCCCCC#N | nitrilase bll6402 (Bradyrhizobium diazoefficiens) | Yield (%) of cyanocarboxylic acid | 88%
N#CCCCCCCCCC#N | nitrilase bll6402 (Bradyrhizobium diazoefficiens) | Yield (%) of cyanocarboxylic acid | 88%

# evaluate next
Form: compound = N#CCCCCCC#N ; Yield (%) of cyanocarboxylic acid = 90%

---

Below, each entry is listed with its recorded Relative Activity.
Biological target: nitrilase bll6402 (Bradyrhizobium diazoefficiens)
Assay: Substrate specificity: specific/relative activity by ammonia release
Type: biochemical, Bradyrhizobium japonicum USDA110
Conditions: 25 mM substrate, pH 7.2, 30° C.; phenylacetonitrile defined as 100
Just the number.

Examples with their reported Relative Activity follow.
molecule | quantity | value.observed
CC(C#N)CCC#N (centres unmarked) [2-Methylglutaronitrile] | Relative Activity | 3
N#CC(O)c1ccccc1 (centres unmarked) [Mandelonitrile] | Relative Activity | 460
CCCCCCC#N [Heptanenitrile] | Relative Activity | 22
N#CCCCCl [4-Chlorobutyronitrile] | Relative Activity | 6
N#CCc1ccccc1 [Phenylacetonitrile] | Relative Activity | 100
N#CCCCc1ccccc1 [4-Phenylbutyronitrile] | Relative Activity | 4
N#CCc1c[nH]c2ccccc12 [3-Indolylacetonitrile] | Relative Activity | 2

# evaluate next
Form: molecule = C[Si](C)(C)OC(C#N)c1ccccc1 (stereo not drawn) [α-Trimethylsilyloxyphenylacetonitrile] ; Relative Activity = 165

The reported measurements were obtained from patent US20070178575A1.
